Tested on: Monocotyledonous and dicotyledonous test plants
Assay: Herbicidal action prior to emergence of the plants (pre-emergence action), Example B1
Format: in vivo
Settings: preemergence application, 250 g/ha, BRAPL, evaluated after 4 weeks; 100%=total damage, 0%=no damage
READOUT TYPE: herbicidal damage, BRAPL
Could you kindly put the unit after your number?

// solved cases for herbicidal damage, BRAPL follow
CC(C)c1nc2c(C(=O)C3=C(O)C4CCC(C4)C3=O)ccc(C(F)(F)F)n2n1 (stereo not drawn) [2.7]: 0%
CCOc1nc2c(C(=O)C3=C(O)C4CCC(C4)C3=O)ccc(C(F)(F)F)n2n1 (stereo not drawn) [2.209]: 90%

Task: Could you tell me which herbicidal damage, BRAPL is on file for O=C1CCCC(O)=C1C(=O)c1ccc(C(F)(F)F)n2c(-c3cccnc3)nnc12 [Compound 3.15] ?
Output: 30%

* * *

Quick list: herbicidal damage, DIGSA per entry.
System: Monocotyledonous and dicotyledonous test plants
Assay: Herbicidal action after emergence of the plants (post-emergence herbicidal action), Example B2
Assay type: in vivo
Details: postemergent application, 125 g/ha, DIGSA, 2- to 3-leaf stage, evaluated after 2-3 weeks; 100%=total damage
Experimental: Monocotyledonous and dicotyledonous test plants are sown in seed trays in standard soil. […] After a 2- to 3-week test period, the test is evaluated (100%=total damage to plant; 0%=no damage to plant).
Reply numerically in %, unit not repeated.

The following compounds have reported results that may help.
O=C1CCCC(O)=C1C(=O)c1ccc(C(F)(F)F)n2c(Br)nnc12: 70
CCCC1CCC(=O)C(C(=O)c2ccc(C(F)(F)F)n3c(C)nnc23)=C1O (stereo not shown): 80
CCc1nnc2c(C(=O)C3=C(O)CCCC3=O)ccc(C(F)(F)F)n12: 80

// moving on: another record for herbicidal damage, DIGSA
Task: I would be grateful if you could share the reported herbicidal damage, DIGSA for CC1(C)C(=O)C(C(=O)c2ccc(C(F)(F)F)n3c(Br)nnc23)=C(O)C(C)(C)C1=O .
Output: 70

* * *

Measured herbicidal damage, ECHCG, listed per entry for reference.
Tested on: Monocotyledonous and dicotyledonous test plants
Test: Herbicidal action prior to emergence of the plants (pre-emergence action), Example B1
Format: in vivo
Details: preemergence application, 250 g/ha, ECHCG, evaluated after 4 weeks; 100%=total damage, 0%=no damage
The reply should contain only the number, in %.

O=C(C1=C(O)C2CCC(C2)C1=O)c1ccc(C(F)(F)F)n2c(Cl)nnc12 (centres unmarked): 100
O=C1CCCC(O)=C1C(=O)c1ccc(C(F)(F)F)n2c(Br)nnc12: 0
Cc1nnc2c(C(=O)C3=C(O)C4CCC(C4)C3=O)ccc(C(F)F)n12 (centres unmarked): 0
CCOc1nnc2c(C(=O)C3=C(O)C4CCC(C4)C3=O)ccc(C(F)(F)F)n12 (centres unmarked): 70
Cc1nc2c(C(=O)C3=C(O)CCCC3=O)ccc(C(F)(F)F)n2n1: 0

Here's the next entry for you.
Task: Consider the compound shown here: Cc1nnc2c(C(=O)C3=C(O)C4(CCC3=O)CC4)ccc(C(F)(F)F)n12 What is its recorded herbicidal damage, ECHCG?
Output: 100

* * *

Test system: Monocotyledonous and dicotyledonous test plants
Assay: Herbicidal action prior to emergence of the plants (pre-emergence action), Example B1
Format: in vivo
Settings: preemergence application, 250 g/ha, BRAPL, evaluated after 4 weeks; 100%=total damage, 0%=no damage
Experimental: Monocotyledonous and dicotyledonous test plants are sown in seed trays in standard soil. […] After a 4-week test period, the test is evaluated (100%=total damage to plant; 0%=no damage to plant; NC not evaluated).
READOUT TYPE: herbicidal damage, BRAPL
Please state the value followed by its unit.

Sample records with herbicidal damage, BRAPL:
O=C1CCCC(O)=C1C(=O)c1ccc(C(F)(F)F)n2cnnc12 [Compound 3.1]: 40%
Cc1nnc2c(C(=O)C3=C(O)C4(CCC3=O)CC4)ccc(C(F)(F)F)n12 [41.2]: 80%
CCCC1CCC(=O)C(C(=O)c2ccc(C(F)(F)F)n3c(C)nnc23)=C1O (centres unmarked) [41.6]: 60%
CC(C)c1nnc2c(C(=O)C3=C(O)CCCC3=O)ccc(C(F)(F)F)n12 [Compound 3.6]: 60%
Cc1nc2c(C(=O)C3=C(O)C4CCC(C4)C3=O)ccc(C(F)(F)F)n2n1 (centres unmarked) [2.4]: 10%
CC(C)c1nnc2c(C(=O)C3=C(O)C(C)(C)C(=O)C(C)(C)C3=O)ccc(C(F)(F)F)n12 [Compound 5.4]: 100%

Task: Given CCc1nnc2c(C(=O)C3=C(O)CCCC3=O)ccc(C(F)(F)F)n12 [Compound 3.5] , state its recorded herbicidal damage, BRAPL.
Output: 80%

Task: herbicidal damage, BRAPL lookup needed for O=C1CCCC(O)=C1C(=O)c1ccc(C(F)(F)F)n2c(Cl)nnc12 [Compound 3.2] , thanks.
Output: 0%
